test system: HCT-8 host cells (Hs18S); settings: primary screening at 10 uM, treated vs control
MEASURED METRIC: Hs18S ΔCT

1. COc1ccc2c3c([nH]c2c1)C(C)=NCC3 [HARMALINE] | 0.01
2. C[C@H](CCC(=O)O)[C@H]1CC[C@H]2[C@@H]3C[C@H](O)[C@@H]4C[C@H](O)CC[C@]4(C)[C@H]3CC[C@]12C [alpha-HYDROXYDEOXYCHOLIC ACID] | -0.52
3. O=C(/C=C/c1ccc(O)cc1)c1ccccc1O [2',4-DIHYDROXYCHALCONE] | 0.13
4. COc1cc2oc3cc(OC)c(OC)c(CC=C(C)C)c3c(=O)c2c(O)c1CC=C(C)C | 0.12

Origin of values: paper PMC6736568
